Target: B. subtilis RNAP (Bacillus subtilis, UniProt P37870+P37871)
Construct: endogenous in cells; host or cells: Bacillus subtilis strain PL37 (built from strain 168)
Sequence (P37871 whole entry): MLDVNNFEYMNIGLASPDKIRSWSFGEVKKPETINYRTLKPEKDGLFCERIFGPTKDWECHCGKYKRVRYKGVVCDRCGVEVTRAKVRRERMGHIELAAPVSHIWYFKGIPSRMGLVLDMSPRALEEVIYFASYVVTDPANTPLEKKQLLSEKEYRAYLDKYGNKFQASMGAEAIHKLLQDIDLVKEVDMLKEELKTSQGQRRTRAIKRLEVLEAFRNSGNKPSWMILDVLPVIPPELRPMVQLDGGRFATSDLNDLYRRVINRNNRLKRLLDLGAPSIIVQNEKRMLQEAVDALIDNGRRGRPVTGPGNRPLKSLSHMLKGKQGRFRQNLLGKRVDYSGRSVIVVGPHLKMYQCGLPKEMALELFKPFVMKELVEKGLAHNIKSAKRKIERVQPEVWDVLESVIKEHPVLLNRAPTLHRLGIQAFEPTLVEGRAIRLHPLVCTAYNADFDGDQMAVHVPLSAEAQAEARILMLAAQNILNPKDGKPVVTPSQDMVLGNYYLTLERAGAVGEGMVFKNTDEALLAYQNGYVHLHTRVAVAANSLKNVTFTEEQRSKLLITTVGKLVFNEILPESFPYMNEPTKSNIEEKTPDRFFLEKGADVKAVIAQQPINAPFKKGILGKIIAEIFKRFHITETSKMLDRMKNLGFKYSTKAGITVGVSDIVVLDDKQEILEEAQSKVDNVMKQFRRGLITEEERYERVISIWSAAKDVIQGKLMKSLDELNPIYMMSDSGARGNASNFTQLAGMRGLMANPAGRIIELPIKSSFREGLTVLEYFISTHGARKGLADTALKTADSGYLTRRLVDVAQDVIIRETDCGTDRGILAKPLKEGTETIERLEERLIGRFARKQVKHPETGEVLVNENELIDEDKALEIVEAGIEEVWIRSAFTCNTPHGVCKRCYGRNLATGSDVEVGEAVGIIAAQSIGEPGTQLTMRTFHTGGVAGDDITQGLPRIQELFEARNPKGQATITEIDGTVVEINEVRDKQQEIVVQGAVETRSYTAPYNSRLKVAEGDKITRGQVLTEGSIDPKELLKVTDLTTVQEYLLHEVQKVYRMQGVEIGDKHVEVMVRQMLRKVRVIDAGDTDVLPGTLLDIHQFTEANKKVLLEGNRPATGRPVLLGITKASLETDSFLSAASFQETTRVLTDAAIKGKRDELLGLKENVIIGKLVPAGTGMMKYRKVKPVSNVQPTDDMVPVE
Sequence (P20429 whole entry, further chain): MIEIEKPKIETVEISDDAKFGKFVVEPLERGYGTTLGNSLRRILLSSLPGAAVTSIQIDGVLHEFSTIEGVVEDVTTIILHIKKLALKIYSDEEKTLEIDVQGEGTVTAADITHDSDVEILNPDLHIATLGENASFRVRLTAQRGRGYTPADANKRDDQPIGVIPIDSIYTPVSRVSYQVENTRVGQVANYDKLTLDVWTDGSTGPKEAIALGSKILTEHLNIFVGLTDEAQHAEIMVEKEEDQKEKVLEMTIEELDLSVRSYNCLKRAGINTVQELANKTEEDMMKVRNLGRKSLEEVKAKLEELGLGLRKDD
Sequence (O35011 whole entry, further chain): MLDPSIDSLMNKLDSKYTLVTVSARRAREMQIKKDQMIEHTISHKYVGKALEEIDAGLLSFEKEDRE
Sequence (P37870 whole entry): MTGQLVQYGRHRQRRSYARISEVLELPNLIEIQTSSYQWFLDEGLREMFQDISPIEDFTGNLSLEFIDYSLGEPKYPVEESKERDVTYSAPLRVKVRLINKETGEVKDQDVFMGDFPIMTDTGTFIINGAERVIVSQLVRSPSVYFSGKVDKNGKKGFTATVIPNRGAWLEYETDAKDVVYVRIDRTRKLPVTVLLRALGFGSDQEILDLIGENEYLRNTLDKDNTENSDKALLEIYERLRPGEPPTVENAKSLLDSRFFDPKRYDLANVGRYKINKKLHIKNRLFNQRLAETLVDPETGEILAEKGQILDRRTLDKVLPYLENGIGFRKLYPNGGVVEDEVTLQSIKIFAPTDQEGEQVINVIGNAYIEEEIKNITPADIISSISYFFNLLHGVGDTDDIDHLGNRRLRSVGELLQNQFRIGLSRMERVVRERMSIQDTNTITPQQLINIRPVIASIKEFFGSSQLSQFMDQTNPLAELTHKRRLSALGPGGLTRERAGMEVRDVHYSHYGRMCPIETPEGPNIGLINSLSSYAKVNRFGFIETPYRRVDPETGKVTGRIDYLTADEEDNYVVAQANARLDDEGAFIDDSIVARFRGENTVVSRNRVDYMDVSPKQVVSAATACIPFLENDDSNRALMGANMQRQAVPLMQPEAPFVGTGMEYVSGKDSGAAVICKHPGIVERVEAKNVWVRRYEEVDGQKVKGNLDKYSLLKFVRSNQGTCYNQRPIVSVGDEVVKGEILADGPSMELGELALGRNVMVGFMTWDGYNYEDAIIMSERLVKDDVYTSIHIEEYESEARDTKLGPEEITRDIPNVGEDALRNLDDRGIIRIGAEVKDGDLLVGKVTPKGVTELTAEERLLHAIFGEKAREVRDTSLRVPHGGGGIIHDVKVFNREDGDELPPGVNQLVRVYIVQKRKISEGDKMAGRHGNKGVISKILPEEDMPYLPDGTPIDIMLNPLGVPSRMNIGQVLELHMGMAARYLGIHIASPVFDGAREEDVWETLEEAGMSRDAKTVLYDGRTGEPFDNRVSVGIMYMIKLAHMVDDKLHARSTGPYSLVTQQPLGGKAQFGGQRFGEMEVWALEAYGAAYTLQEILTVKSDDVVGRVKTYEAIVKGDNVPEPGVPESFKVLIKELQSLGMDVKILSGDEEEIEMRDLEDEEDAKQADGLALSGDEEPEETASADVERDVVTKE
Experiment: Dual reporter assay in strain PL37: test reporter Pxyl-lacZ and ratio of control to test reporter (RES:MUG)
Format: cell-based
Conditions: strain PL37; Dilution Number 2; DMSO control […]
Description: 20 known antibiotics were tested at a range of concentrations to determine their effect on test and control reporters within the assay. […] Cultures of PL37 grown in PAB, were diluted to 0.05 A600 and then grown for 2 hours at 37° C. in PAB supplemented with 0.02 mM IPTG. Cells were pelleted and frozen. They were later resuspended and diluted in PAB supplemented with 0.02 mM IPTG and grown at 37° C. to early exponential phase. […]
RECORDED_ENDPOINT: Ratio of the control reporter (RES): test reporter (MUG)
Number, no unit, nothing else.

Sample CC(O)C(=O)O.COc1cc(Cc2cnc(N)nc2N)cc(OC)c1OC [Trimethoprim Lactate] — what was its Ratio of the control reporter (RES): test reporter (MUG)?
0.55

Another: CCn1cc(C(=O)O)c(=O)c2ccc(C)nc21 [Nalidixic Acid]
1.76

Another: CC[C@@]1([C@@H]2O[C@@H]([C@H]3O[C@@](O)(CO)[C@H](C)C[C@@H]3C)C[C@@H]2C)CC[C@H]([C@]2(C)CC[C@]3(C[C@H](O)[C@@H](C)[C@@H]([C@@H](C)[C@@H](OC)[C@H](C)C(=O)O)O3)O2)O1 [Monensin]
1.42

Another: CNC(=O)[C@@H](C)[C@H]1C(=O)/C(=C(O)/C=C/C(C)=C/[C@@H](C)[C@H]2O[C@@]3(C)O[C@H](C=C[C@@]34CO4)[C@@H]2C)C(=O)N1[C@@H]1CC[C@H](O)[C@H](C)O1 [Streptolydigin]
16.68

Another: CCn1cc(C(=O)O)c(=O)c2cc3c(cc21)OCO3 [Oxolinic Acid]
1.33

Another: CO[C@@H]1[C@@H](OC(N)=O)[C@@H](O)[C@H](Oc2ccc3c(O)c(NC(=O)c4ccc(O)c(CC=C(C)C)c4)c(=O)oc3c2C)OC1(C)C [Novobiocin]
1.70

* * *

Biological target: B. subtilis RNAP (Bacillus subtilis, UniProt P37870+P37871)
Construct: endogenous in cells; host or cells: Bacillus subtilis strain PL37 (built from strain 168)
Assay: Dual reporter assay in strain PL37: test reporter Pxyl-lacZ and ratio of control to test reporter (RES:MUG)
Type: cell-based
Details: strain PL37; Dilution Number 6; DMSO control […]
Would you kindly list Ratio of the control reporter (RES): test reporter (MUG) for each of these compounds?
Number, no unit, nothing else.

Sample CC[C@@]1([C@@H]2O[C@@H]([C@H]3O[C@@](O)(CO)[C@H](C)C[C@@H]3C)C[C@@H]2C)CC[C@H]([C@]2(C)CC[C@]3(C[C@H](O)[C@@H](C)[C@@H]([C@@H](C)[C@@H](OC)[C@H](C)C(=O)O)O3)O2)O1 [Monensin] — what was its Ratio of the control reporter (RES): test reporter (MUG)?
2.00

Another: CC1(C)S[C@@H]2[C@H](NC(=O)C(C(=O)O)c3ccccc3)C(=O)N2[C@H]1C(=O)O (stereo partly drawn) [Carbenicillin]
1.64

Another: CC(O)C(=O)O.COc1cc(Cc2cnc(N)nc2N)cc(OC)c1OC [Trimethoprim Lactate]
0.58
